These measurements were taken from patent US20260200943A1.

target: CDK1/CyclinB1 (Homo sapiens); construct: Wild-type, full length CDK1 in complex with wildtype, full length CyclinB1: Carna Cat #04-102; purchased Carna 04-102; assay: CDK1/Cyclin B1 Mobility Shift Assay (Caliper, Table B); type: biochemical; conditions: read-out: CDK1/CCNB1 Caliper Ki: Average Ki
Recorded Endpoint: Ki

# example entries with known answers
Structure Smiles: O=C1NCCCCCCOc2cccc(n2)Nc2ncc(cn2)[C@@H]2CC[C@@H](C2)O1
Ki: ≥ 100 nM

Structure Smiles: O=C1NCCCCCCCOc2cccc(n2)Nc2ncc(cn2)[C@@H]2CC[C@@H](C2)O1
Ki: ≥ 100 nM

Structure Smiles: O=C1NCCCCNS(=O)(=O)c2ccc(c(F)c2)Nc2cc([nH]n2)[C@H]2CC[C@H](C2)O1
Ki: 1 to 25 nM

Structure Smiles: O=C1NCCOCCNS(=O)(=O)c2ccc(c(F)c2)Nc2cc([nH]n2)[C@H]2CC[C@H](C2)O1
Ki: 1 to 25 nM

Query: Suppose we examine the molecule CN1CCNC(=O)O[C@@H]2CC[C@@H](C2)c2cc(n[nH]2)Nc2ccc(cc2F)S(=O)(=O)NCC1 ; what Ki value has been reported?
Response: ≥ 100 nM

Query: Follow-up entry: O=C1NCCCCOc2cccc(n2)Nc2ncc(cn2)[C@@H]2CC[C@@H](C2)O1
Response: ≥ 100 nM

Query: Next record, please: O=C1NCCCCCCNS(=O)(=O)c2ccc(cc2)Nc2ncc(cn2)[C@@H]2CC[C@@H](C2)O1
Response: ≥ 100 nM

Query: Try the molecule O=C1NCCCCCOc2cccc(n2)Nc2ncc(cn2)[C@@H]2CC[C@@H](C2)O1
Response: ≥ 100 nM

---

Recorded measurements of Ki, one per entry
target: CDK2/CyclinA2 (Homo sapiens, UniProt P24941); construct: Wild-type, full length CDK2 in complex with wildtype, full length CyclinA2: Carna Cat #04-103; purchased Carna 04-103; test: CDK2/Cyclin A2 Mobility Shift Assay (Caliper, Table B); type: biochemical; conditions: Caliper mobility shift, 10xKm; read-out: CDK2/CCNA2 Caliper 10xKm Ki: Average Ki

Reference set (3 entries):
Structure Smiles: O=C1NCCCCCCNS(=O)(=O)c2ccc(c(F)c2)Nc2cc([nH]n2)[C@H]2CC[C@H](C2)O1
Endpoint Result: < 0.001 µM
--
Structure Smiles: O=C1NCCOCCNS(=O)(=O)c2ccc(c(F)c2)Nc2cc([nH]n2)[C@H]2CC[C@H](C2)O1
Endpoint Result: 0.001 to 0.025 µM
--
Structure Smiles: O=C1NCCCCCCCOc2cccc(n2)Nc2ncc(cn2)[C@@H]2CC[C@@H](C2)O1
Endpoint Result: 0.025 to 0.1 µM

Query: Reported Ki for O=C1NCCCCCn2cc(cn2)S(=O)(=O)N2CCC(CC2)Nc2cc([nH]n2)[C@H]2CC[C@H](C2)O1 : what is it?
Response: 0.001 to 0.025 µM

Query: Again, but for O=C1NCCCCCCn2cc(cn2)S(=O)(=O)N2CCC(CC2)Nc2cc([nH]n2)[C@H]2CC[C@H](C2)O1
Response: 0.001 to 0.025 µM

Query: Proceed to O=C1NCCCCCCCNS(=O)(=O)c2ccc(c(F)c2)Nc2cc([nH]n2)[C@H]2CC[C@H](C2)O1
Response: < 0.001 µM

Query: Check O=C1NCCCCCNS(=O)(=O)c2ccc(c(F)c2)Nc2cc([nH]n2)[C@H]2CC[C@H](C2)O1 too.
Response: 0.001 to 0.025 µM

---

target: CDK1/CyclinB1 (Homo sapiens, UniProt P06493); construct: Wild-type, full length CDK1 in complex with wildtype, full length CyclinB1: Carna Cat #04-102; purchased Carna 04-102; assay: CDK1/Cyclin B1 Mobility Shift Assay (Caliper, Table B); assay type: biochemical; details: read-out: CDK1/CCNB1 Caliper Ki: Average Ki
Sequence (P06493 whole entry): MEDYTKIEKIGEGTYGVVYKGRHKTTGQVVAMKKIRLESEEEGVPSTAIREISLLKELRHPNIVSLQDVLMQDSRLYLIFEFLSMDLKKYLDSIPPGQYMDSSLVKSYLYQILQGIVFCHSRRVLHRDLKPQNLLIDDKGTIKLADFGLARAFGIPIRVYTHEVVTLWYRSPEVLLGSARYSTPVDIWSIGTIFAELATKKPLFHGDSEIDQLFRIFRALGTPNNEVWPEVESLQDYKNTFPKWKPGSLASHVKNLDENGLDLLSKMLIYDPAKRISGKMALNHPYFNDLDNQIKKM
Sequence (P14635 whole entry partner): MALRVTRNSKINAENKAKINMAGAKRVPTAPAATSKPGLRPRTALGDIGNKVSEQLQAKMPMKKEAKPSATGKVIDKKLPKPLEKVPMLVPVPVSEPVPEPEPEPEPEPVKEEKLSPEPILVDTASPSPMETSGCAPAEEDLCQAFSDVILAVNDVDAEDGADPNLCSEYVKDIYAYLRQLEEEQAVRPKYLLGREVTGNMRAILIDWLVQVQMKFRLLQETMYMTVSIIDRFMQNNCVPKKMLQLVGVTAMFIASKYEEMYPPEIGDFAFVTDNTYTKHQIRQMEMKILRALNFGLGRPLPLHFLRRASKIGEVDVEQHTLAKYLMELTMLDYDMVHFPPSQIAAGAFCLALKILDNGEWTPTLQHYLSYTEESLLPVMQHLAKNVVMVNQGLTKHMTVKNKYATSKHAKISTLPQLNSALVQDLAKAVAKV
Quick reference for Ki among some compounds

Query: I have this compound here, CC1(C)CCCNS(=O)(=O)c2ccc(c(F)c2)Nc2cc([nH]n2)[C@H]2CC[C@H](C2)OC(=O)N1 [Compound 101] , and I need its recorded Ki.
Response: ≥ 100 nM

Query: Next compound up: O=C1NCCCCCCNS(=O)(=O)c2ccc(c(F)c2)Nc2cc([nH]n2)[C@H]2CC[C@H](C2)O1 [Compound 91]
Response: 1 to 25 nM

Query: Same lookup for O=C1NCCCCCCCNS(=O)(=O)c2ccc(c(F)c2)Nc2cc([nH]n2)[C@H]2CC[C@H](C2)O1 [Compound 92] , please.
Response: < 1 nM

Query: Similarly, O=C1NCC=CCNS(=O)(=O)c2ccc(c(F)c2)Nc2cc([nH]n2)[C@H]2CC[C@H](C2)O1 [Compound 102] ?
Response: 25 to 100 nM

Query: Now try O=C1NCCCCCn2cc(cn2)S(=O)(=O)N2CCC(CC2)Nc2cc([nH]n2)[C@H]2CC[C@H](C2)O1 [Compound 96] .
Response: ≥ 100 nM

---

target: CDK1/CyclinB1 (Homo sapiens, UniProt P06493); construct: Wild-type, full length CDK1 in complex with wildtype, full length CyclinB1: Carna Cat #04-102; purchased Carna 04-102; assay: CDK1/Cyclin B1 Mobility Shift Assay (Caliper, Table B); format: biochemical; details: read-out: CDK1/CCNB1 Caliper Ki: Average Ki
pKi: −log10 of the molar value.
Recorded Endpoint: pKi

Structure Smiles: O=C1NCCCCCCn2cc(cn2)S(=O)(=O)N2CCC(CC2)Nc2cc([nH]n2)[C@H]2CC[C@H](C2)O1
pKi: 7.60 to 9.00

Structure Smiles: O=C1NCCCNS(=O)(=O)c2ccc(c(F)c2)Nc2cc([nH]n2)[C@H]2CC[C@H](C2)O1
pKi: ≤ 7.00

Structure Smiles: O=C1NCCCn2cc(cn2)S(=O)(=O)N2CCC(CC2)Nc2cc([nH]n2)[C@H]2CC[C@H](C2)O1
pKi: ≤ 7.00

Please examine the following record next.
Query: What does the record list as pKi for O=C1NCCCCCNS(=O)(=O)c2ccc(c(F)c2)Nc2cc([nH]n2)[C@H]2CC[C@H](C2)O1 ?
Response: 7.00 to 7.60

---

The entries below are paired with their reported pKi.
target: CDK9/CyclinT1 (Homo sapiens); experiment: CDK9/CyclinT1 ChEF Assay (AQT, Table C); assay type: biochemical; design: Wild-type, full length CDK9 in complex with wildtype, CyclinT1 (1-259): Biortus Cat #BP480/792/691; purchased Biortus BP480/792/691; conditions: 10XKm
Sequence (P50750 whole entry): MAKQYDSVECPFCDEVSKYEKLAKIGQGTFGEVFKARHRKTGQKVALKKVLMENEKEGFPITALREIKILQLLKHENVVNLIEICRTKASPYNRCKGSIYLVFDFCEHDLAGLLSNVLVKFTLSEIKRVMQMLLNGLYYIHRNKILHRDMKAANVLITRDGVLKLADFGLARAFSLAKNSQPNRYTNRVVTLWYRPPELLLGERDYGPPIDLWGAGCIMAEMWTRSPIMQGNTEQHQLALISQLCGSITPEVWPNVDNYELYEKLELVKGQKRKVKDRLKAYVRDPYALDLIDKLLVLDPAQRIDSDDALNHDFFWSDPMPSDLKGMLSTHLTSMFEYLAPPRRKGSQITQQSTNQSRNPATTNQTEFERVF
Sequence (O60563 1-259 partner limits assumed): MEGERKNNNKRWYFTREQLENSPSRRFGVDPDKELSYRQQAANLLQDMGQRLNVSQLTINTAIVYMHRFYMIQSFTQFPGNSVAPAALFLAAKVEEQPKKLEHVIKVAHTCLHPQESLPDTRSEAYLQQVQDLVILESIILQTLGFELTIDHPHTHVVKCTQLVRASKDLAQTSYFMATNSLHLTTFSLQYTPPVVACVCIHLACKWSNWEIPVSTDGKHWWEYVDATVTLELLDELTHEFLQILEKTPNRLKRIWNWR
pKi: −log10 of the molar value.

Example cases with answers are listed next.
Compound: O=C1NCCCCCCn2cc(cn2)S(=O)(=O)N2CCC(CC2)Nc2cc([nH]n2)[C@H]2CC[C@H](C2)O1
pKi: 7.00 to 7.60

Compound: O=C1NCCCCCCNS(=O)(=O)c2ccc(c(F)c2)Nc2cc([nH]n2)[C@H]2CC[C@H](C2)O1
pKi: 7.00 to 7.60

Compound: NS(=O)(=O)c1ccc2cc1OCCCCCNC(=O)O[C@H]1CC[C@H](C1)c1cnc(nc1)N2 (stereo in doubt) [Compound 103]
pKi: 7.60 to 9.00

Compound: NS(=O)(=O)c1ccc2cc1OCCCCCNC(=O)O[C@H]1CC[C@H](C1)c1cnc(nc1)N2 (stereo in doubt) [Compound 104]
pKi: ≤ 7.00

Query: Entry under review: NS(=O)(=O)c1ccc2cc1OCCCCCNC(=O)O[C@@H]1CC[C@@H](C1)c1cnc(nc1)N2 (stereo in doubt) . Reported pKi?
Response: 7.00 to 7.60

---

molecular target: CDK2/CyclinA2 (Homo sapiens, UniProt P24941); construct: Wild-type, full length CDK2 in complex with wildtype, full length CyclinA2: Carna Cat #04-103; purchased Carna 04-103; test: CDK2/Cyclin A2 Mobility Shift Assay (Caliper, Table B); format: biochemical; conditions: Caliper, selectivity over CDK9
Recorded Endpoint: CDK2/CCNA2 Caliper 10xKm Ki: CDK2/A2 Selectivity over CDK9

Some solved cases for reference:
Structure Smiles: O=C1NCCCCNS(=O)(=O)c2ccc(c(F)c2)Nc2cc([nH]n2)[C@H]2CC[C@H](C2)O1
System Name: CDK2/CyclinA2 (Homo sapiens, UniProt P24941)
Endpoint Result: A (A>10)

Structure Smiles: O=C1NCCCCCOc2cccc(n2)Nc2ncc(cn2)[C@@H]2CC[C@@H](C2)O1
System Name: CDK2/CyclinA2 (Homo sapiens, UniProt P24941)
Endpoint Result: B (5≤B<10)

Structure Smiles: O=C1NCCOCCNS(=O)(=O)c2ccc(c(F)c2)Nc2cc([nH]n2)[C@H]2CC[C@H](C2)O1
System Name: CDK2/CyclinA2 (Homo sapiens, UniProt P24941)
Endpoint Result: A (A>10)

Structure Smiles: O=C1NCCCCCCOc2cccc(n2)Nc2ncc(cn2)[C@@H]2CC[C@@H](C2)O1
System Name: CDK2/CyclinA2 (Homo sapiens, UniProt P24941)
Endpoint Result: B (5≤B<10)

Structure Smiles: O=C1NCCCCCCNS(=O)(=O)c2ccc(c(F)c2)Nc2cc([nH]n2)[C@H]2CC[C@H](C2)O1
System Name: CDK2/CyclinA2 (Homo sapiens, UniProt P24941)
Endpoint Result: A (A>10)

Okay, now this compound:
Query: Item: CN1CCNC(=O)O[C@@H]2CC[C@@H](C2)c2cc(n[nH]2)Nc2ccc(cc2F)S(=O)(=O)NCC1 Test system: CDK2/CyclinA2 (Homo sapiens, UniProt P24941) Read-out: CDK2/CCNA2 Caliper 10xKm Ki: CDK2/A2 Selectivity over CDK9 Value: ?
Response: A (A>10)
